- experiment notes: qHTS of pediatric cancer cell lines to identify multiple opportunities for drug repurposing: Primary screen for TC32 cells (AID 1347089); also: nearly all actives have a fitted effect of over 60% in size
- details: TC32 Ewing sarcoma viability, CellTiter-Glo luminescence, 48 h; series mostly up to 45.8 µM
Results filed as inconclusive are left out. Activity calls are given as the source filed them. Calls follow the shape of the dose curve; as a rule, active = well fitted cell-killing curve with a large enough effect; inconclusive = small, poorly fitted or top-dose-only effect; inactive = flat fitted curve, though single readings scatter.
Possible outcomes: active, inactive

[
  {
    "molecule": "COc1ccc(COc2cc3oc(=O)c4cc(C(C)O)ccc4c3cc2OC)cc1 (centres undefined)",
    "class label": "inactive"
  },
  {
    "molecule": "NC(=O)C1CCCc2c1[nH]c1ccc(Cl)cc21 (centres undefined)",
    "class label": "inactive"
  },
  {
    "molecule": "CCN(c1ccccc1)c1cc(NC)[n+](C)c(C)n1",
    "class label": "inactive"
  },
  {
    "molecule": "Nc1nc2[nH]cc(CCc3ccc(C(=O)N[C@@H](CCC(=O)O)C(=O)O)cc3)c2c(=O)[nH]1",
    "class label": "active"
  }
]

* * *

- experiment notes: Cytotoxicity counterscreen for NFkB agonists and antagonists (AID 624476);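 also: cells exposed to compound for 48 hours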
- details: NFkB reporter cell line viability counterscreen; series mostly up to 46.1 µM
Inconclusive results are not listed. Calls of active or inactive are those of the source. Calls come from the whole dose curve; as a rule, active = well fitted curve in the direction sought with a large enough effect; inconclusive = small, poorly fitted or top-dose-only effect, or another doubt; inactive = no such curve, though single readings can be large or run the other way.
Possible outcomes: active, inactive

[
  {
    "compound": "O=C(C=Cc1ccc(/C=C/C(=O)Nc2ccc(C3=NCCN3)cc2)cc1)Nc1ccc(C2=NCCN2)cc1",
    "class label": "inactive"
  },
  {
    "compound": "CC(c1cc2ccccc2s1)N(O)C(N)=O (stereo not given)",
    "class label": "inactive"
  },
  {
    "compound": "CCCc1nn(C)c2c(=O)[nH]c(-c3cc(S(=O)(=O)N4CCN(C)CC4)ccc3OCC)nc12",
    "class label": "inactive"
  },
  {
    "compound": "O=C(c1cc(Cc2n[nH]c(=O)c3ccccc23)ccc1F)N1CCN(C(=O)C2CC2)CC1",
    "class label": "inactive"
  },
  {
    "compound": "Cc1cc(-c2ccc(CC(=O)Nc3ccc(-c4cccnc4)cc3)cc2)ccn1",
    "class label": "inactive"
  },
  {
    "compound": "O=C(OCC#CCSc1nnc(-c2ccc3ccccc3c2)o1)c1cc2ccccc2s1",
    "class label": "inactive"
  },
  {
    "compound": "CNC(=O)c1ccc(C)c(-n2c(C)cc(OCc3ccc(F)cc3F)c(Br)c2=O)c1",
    "class label": "inactive"
  },
  {
    "compound": "CCCS(=O)(=O)Nc1ccc(F)c(C(=O)c2c[nH]c3ncc(-c4ccc(Cl)cc4)cc23)c1F",
    "class label": "active"
  },
  {
    "compound": "CC(C)C[C@H](NC(=O)[C@@H](O)[C@H](N)Cc1ccccc1)C(=O)O",
    "class label": "inactive"
  },
  {
    "compound": "CCC(=O)N[C@H]1CC[C@H](C(=O)N(C)c2ccc(-c3nc4ccccc4o3)cc2)C1",
    "class label": "inactive"
  },
  {
    "compound": "CNC(=O)c1ccc(N2C(=S)N(c3ccc(C#N)c(C(F)(F)F)c3)C(=O)C2(C)C)cc1F",
    "class label": "inactive"
  },
  {
    "compound": "CO[C@@H]1[C@H](N(C)C(=O)c2ccccc2)C[C@H]2O[C@]1(C)n1c3ccccc3c3c4c(c5c6ccccc6n2c5c31)C(=O)NC4",
    "class label": "inactive"
  },
  {
    "compound": "N#CC[C@H](C1CCCC1)n1cc(-c2ncnc3[nH]ccc23)cn1",
    "class label": "inactive"
  },
  {
    "compound": "CN(C)c1ccc(C2Nc3ccc4ccccc4c3C3=C2C(=O)CC(C)(C)C3)cc1Br (stereo not given)",
    "class label": "inactive"
  },
  {
    "compound": "Cc1cc(-c2nnc3n2CCCCC3)c(C)n1-c1ccc(F)cc1",
    "class label": "inactive"
  },
  {
    "compound": "Cn1cc(-c2ccc3nnc(C(F)(F)c4ccc5ncccc5c4)n3n2)cn1",
    "class label": "inactive"
  },
  {
    "compound": "S=C(NCc1ccc2c(c1)OCO2)N1CCN(c2ncnc3c2oc2ccccc23)CC1",
    "class label": "inactive"
  },
  {
    "compound": "O=C(O)CCc1ccc(NCc2cccc(Oc3ccccc3)c2)cc1",
    "class label": "inactive"
  },
  {
    "compound": "NC(=O)c1ccc(I)c([N+](=O)[O-])c1",
    "class label": "inactive"
  },
  {
    "compound": "COCC(=O)NCC=Cc1ccc2ncnc(Nc3ccc(Oc4ccc(C)nc4)c(C)c3)c2c1",
    "class label": "active"
  },
  {
    "compound": "Nc1cccc(S(=O)(=O)N2CCCN(S(=O)(=O)c3ccc4c(c3)OCCO4)CC2)c1",
    "class label": "inactive"
  },
  {
    "compound": "Cc1cccc(-c2nn(C(=S)Nc3ccccc3)cc2-c2ccnc3ccccc23)n1",
    "class label": "inactive"
  },
  {
    "compound": "COc1ccc(CC2=NN3C([C@@H](CCc4ccccc4)[C@@H](C)O)=NC(C)C3C(=O)N2)cc1OC (stereo not given in full)",
    "class label": "inactive"
  },
  {
    "compound": "CCC(C)N(C)C(=O)c1cc2ccccc2c(-c2ccccc2Cl)n1 (stereo not given)",
    "class label": "inactive"
  },
  {
    "compound": "CN(C(=O)c1ccc(F)cc1C(F)(F)F)C1CCN(c2nnc(-c3ccnn3C)c3ccccc23)CC1",
    "class label": "inactive"
  },
  {
    "compound": "C[C@@H]1CN(Cc2ccc(F)cc2)[C@@H](C)CN1C(=O)c1cc2c(C(=O)C(=O)N(C)C)cn(C)c2cc1Cl",
    "class label": "inactive"
  },
  {
    "compound": "C[C@H](NC(=O)Cc1cc(F)cc(F)c1)C(=O)N[C@@H]1C(=O)N(C)c2ccccc2-c2ccccc21",
    "class label": "inactive"
  },
  {
    "compound": "C[C@]12CC[C@H](O)CC1=CC[C@@H]1[C@H]2CC[C@]2(C)C(c3cccnc3)=CC[C@H]12",
    "class label": "inactive"
  },
  {
    "compound": "OC(CN1CCC(Cc2ccc(F)cc2)CC1)c1ccc(Cl)cc1 (stereo not given)",
    "class label": "inactive"
  },
  {
    "compound": "Oc1cccc(-c2nc(N3CCOCC3)c3oc4ncccc4c3n2)c1",
    "class label": "active"
  }
]

* * *

- experiment notes: qHTS profiling of the MIPE4 collection as inhibitors of Plasmodium falciparum (3D7) proliferation (AID 743344);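 also: scaled between DMSO vehicle wells and 0.29 µM artemisinin as full inhibition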
- details: P. falciparum 3D7 in erythrocytes, SYBR Green DNA fluorescence, 72 h; at 28.5 µM (top of the series) unless noted
endpoint label: parasite growth, % of DMSO control (%)

[
  {
    "compound": "CCOc1cc(C=C2C(=O)N(c3ccccc3)N=C2C)cc(Cl)c1OCC(=O)OC",
    "endpoint label": "parasite growth, % of DMSO control",
    "value observed": 102
  },
  {
    "compound": "CCn1cc(C(=O)O)c(=O)c2cc(F)c(N3CCNC(C)C3)c(F)c21 (configuration not stated)",
    "endpoint label": "parasite growth, % of DMSO control",
    "value observed": 49.1
  },
  {
    "compound": "Cc1cccc(-c2[nH]c(C(C)(C)C)nc2-c2ccc3nccnc3c2)n1",
    "endpoint label": "parasite growth, % of DMSO control",
    "value observed": 23.7
  },
  {
    "compound": "CCOc1cc(C(=O)Nc2ccc(Cl)c(-c3nc4ccccc4[nH]3)c2)cc(OCC)c1OCC",
    "endpoint label": "parasite growth, % of DMSO control",
    "value observed": 5.5
  },
  {
    "compound": "COc1ccc(CC2=NN3C([C@@H](CCc4ccccc4)[C@@H](C)O)=NC(C)C3C(=O)N2)cc1OC (some centres not stated)",
    "endpoint label": "parasite growth, % of DMSO control",
    "value observed": 87.2
  },
  {
    "compound": "Cc1ccccc1C(C(=O)NC1CCCC1)N(C(=O)Cn1cnc2ccccc21)c1cccc(F)c1 (configuration not stated)",
    "endpoint label": "parasite growth, % of DMSO control",
    "value observed": 72.9
  },
  {
    "compound": "C1COC(NC(C2CC2)C2CC2)=N1",
    "endpoint label": "parasite growth, % of DMSO control",
    "value observed": 72.7
  },
  {
    "compound": "COCC(=O)NCC=Cc1ccc2ncnc(Nc3ccc(Oc4ccc(C)nc4)c(C)c3)c2c1",
    "endpoint label": "parasite growth, % of DMSO control",
    "value observed": 15.6
  },
  {
    "compound": "COc1ccc(-c2ccc3c(N4CCOCC4)nc(N4C[C@@H](C)O[C@@H](C)C4)nc3n2)cc1CO",
    "endpoint label": "parasite growth, % of DMSO control",
    "value observed": 6.12
  },
  {
    "compound": "CN([C@@H](Cc1ccc(OS(=O)(=O)c2cccc3cnccc23)cc1)C(=O)N1CCN(c2ccccc2)CC1)S(=O)(=O)c1cccc2cnccc12",
    "endpoint label": "parasite growth, % of DMSO control",
    "value observed": 5.27
  },
  {
    "compound": "N#Cc1ccc(C(c2ccc(C#N)cc2)n2cncn2)cc1",
    "endpoint label": "parasite growth, % of DMSO control",
    "value observed": 89.2
  },
  {
    "compound": "CN(C)C(=O)c1ccc(S(=O)(=O)c2ccc(NC(=O)[C@@](C)(O)C(F)(F)F)c(Cl)c2)cc1",
    "endpoint label": "parasite growth, % of DMSO control",
    "value observed": 34.8
  },
  {
    "compound": "CC(c1cc2ccccc2s1)N(O)C(N)=O (configuration not stated)",
    "endpoint label": "parasite growth, % of DMSO control",
    "value observed": 94.1
  },
  {
    "compound": "NC[C@H](O)c1ccc(O)c(O)c1",
    "endpoint label": "parasite growth, % of DMSO control",
    "value observed": 71.5
  },
  {
    "compound": "Nc1ccc(S(=O)(=O)Nc2ccnn2-c2ccccc2)cc1",
    "endpoint label": "parasite growth, % of DMSO control",
    "value observed": 93.3
  },
  {
    "compound": "COc1nc(-c2ccc3c(c2)OCO3)n(-c2ccc(NC(=O)CSc3ccccc3)cc2)n1",
    "endpoint label": "parasite growth, % of DMSO control",
    "value observed": 51.6
  },
  {
    "compound": "O=C(O)[C@@H](c1ccc(OCc2ccc3ccccc3n2)cc1)C1CCCC1",
    "endpoint label": "parasite growth, % of DMSO control",
    "value observed": 90.1
  },
  {
    "compound": "Cn1c(=O)c(F)c(Nc2ccc(I)cc2F)c2c(=O)n(C[C@@H](O)CO)cnc21",
    "endpoint label": "parasite growth, % of DMSO control",
    "value observed": 12.8
  },
  {
    "compound": "Cc1cnc(Nc2ccc(OCCN3CCCC3)cc2)nc1Nc1cccc(S(=O)(=O)NC(C)(C)C)c1",
    "endpoint label": "parasite growth, % of DMSO control",
    "value observed": 6.36
  },
  {
    "compound": "COc1cccc2cc(-c3nc(C4CCC(C(=O)O)CC4)n4ncnc(N)c34)[nH]c12 (configuration not stated)",
    "endpoint label": "parasite growth, % of DMSO control",
    "value observed": 13.9
  },
  {
    "compound": "CNC[C@H](O)c1cccc(O)c1",
    "endpoint label": "parasite growth, % of DMSO control",
    "value observed": 102
  },
  {
    "compound": "Cc1csc(NC(=O)c2sc3nc4c(c(C(F)(F)F)c3c2N)CCC4)n1",
    "endpoint label": "parasite growth, % of DMSO control",
    "value observed": 44.6
  },
  {
    "compound": "OC[C@H](Cc1ccccc1)Nc1nc(Oc2ccc3c(c2)CCC3)nc2c1ncn2Cc1ccc(-c2ccccc2)cc1",
    "endpoint label": "parasite growth, % of DMSO control",
    "value observed": 33.7
  },
  {
    "compound": "O=c1[nH]c(-c2ccc(C(F)(F)F)cc2)nc2c1CSCC2",
    "endpoint label": "parasite growth, % of DMSO control",
    "value observed": 74.2
  },
  {
    "compound": "COc1cc(F)c(F)c(Nc2ccc(I)cc2F)c1NS(=O)(=O)C1(C[C@H](O)CO)CC1",
    "endpoint label": "parasite growth, % of DMSO control",
    "value observed": 45.3
  }
]

Where these numbers come from: PubChem BioAssay (NCATS)
